assay: Inhibition of Mycobacterium tuberculosis Pantothenate Synthetase expressed in Escherichia coli BL21(DE3) cells using beta-alanine as substrate
observation-type: IC50

> print(dat)
                              smiles.string  measured
1  COc1cc(/C=C2\SC(=S)N(CCC(=O)NNC(=O)c3ccncc3)C2=O)cc(OC)c1OC   0.35 µM

Now look at this entry.
Fill in IC50 for record `O=C(CCN1C(=O)/C(=C/c2ccc([N+](=O)[O-])cc2)SC1=S)NNC(=O)c1ccccc1`
0.37 µM

----------
tested on: Mycobacterium tuberculosis; assay: Antimycobacterial activity against Mycobacterium tuberculosis H37Rv; format: functional
observation-type: MIC (µg/mL)
Report the value in µg/mL with no unit label.

> print(dat)
                                   compound  observation.type  measured
1  COc1ccc(C2SCC(=O)N2NC(=O)Nc2nc(-c3ccc(Cl)cc3)cc(-c3cc(OC)c(OC)c(OC)c3)n2)cc1 (stereo unspecified)               MIC       100
2  O=C1/C(=C/c2ccccc2Cl)SC(c2ccccc2Cl)N1NCCNc1ncc([N+](=O)[O-])s1 (stereo unspecified)               MIC        25
3  COc1cc(-c2cc(-c3ccc(Cl)cc3)nc(NC(=O)NN3C(=O)CSC3c3ccccc3[N+](=O)[O-])n2)cc(OC)c1OC (stereo unspecified)               MIC       100
4  COc1cc(-c2cc(-c3ccc(Cl)cc3)nc(NC(=O)NN3C(=O)CSC3c3ccccc3O)n2)cc(OC)c1OC (stereo unspecified)               MIC       100

Fill in MIC for record C/C(=N\N1C(=O)CSC1c1ccc(O)cc1)c1oc2ccc(Cl)cc2c1C (stereo unspecified)
25

Fill in MIC for record O=C1/C(=C/c2ccc([N+](=O)[O-])cc2)SC(c2ccc([N+](=O)[O-])cc2)N1NCCNc1ncc([N+](=O)[O-])s1 (stereo unspecified)
25
